B1: MYL5 (parent)
chain: FQFASIDVAGNLDYKALSYVITHG

# Variants of: B1
# assayMethodText: protein stability index of a GFP-peptide fusion (GPS, HEK-293T) (PSI 1-6); higher = more stable;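 note: lentivirally expressed fusions sorted by FACS into six bins by GFP to DsRed ratio, PSI derived from sequencing read proportions per bin multiplied by bin number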
# condition: c terminus: a fixed tail appended
measuredAttribute: protein stability index
Answers are plain numbers.

# monomerSequence, observedResult
records = [
    ("FQFASIDVAGNLDYKALSYVIEHG [T22E]", 2.02),
    ("FQFASIDVAGNLDYKALSYVIQHG [T22Q]", 2.54),
    ("FQFASISVAGNLDYKALSYVITHG [D7S]", 3.9),
    ("FQFASIDVAGNLDYVALSYVITHG [K15V]", 2.4),
    ("FQFASPDVAGNLDYKALSYVITHG [I6P]", 2.43),
]

For every item in the list below, what is its measured protein stability index?
1. FQFASIDEAGNLDYKALSYVITHG [V8E]
2. FQFASFDVAGNLDYKALSYVITHG [I6F]
3. FQFASIDVAGNLLYKALSYVITHG [D13L]
4. FGFASIDVAGNLDYKALSYVITHG [Q2G]
5. FQFASIDVAGNLDYKALSYVITDG [H23D]
6. FQFVSIDVAGNLDYKALSYVITHG [A4V]
7. FQDASIDVAGNLDYKALSYVITHG [F3D]

2.42
4.13
2.49
3.54
2.25
1.99
1.34
